Target: hSTING-WT (Homo sapiens (Human), UniProt Q86WV6, H232R)
Sequence (Q86WV6 140-379 H232R): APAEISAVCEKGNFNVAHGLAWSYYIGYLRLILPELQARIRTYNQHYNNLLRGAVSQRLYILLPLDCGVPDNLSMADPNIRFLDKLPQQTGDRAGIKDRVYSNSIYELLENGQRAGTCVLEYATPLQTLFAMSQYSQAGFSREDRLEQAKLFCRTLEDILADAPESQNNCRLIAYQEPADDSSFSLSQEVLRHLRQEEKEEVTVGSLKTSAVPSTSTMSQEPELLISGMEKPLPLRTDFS
Assay: Radiometric filtration binding competition assay, hSTING-WT
READOUT: IC50

COMPOUND: O=C(O)Cn1c2cc(-c3ccc(F)cc3)ccc2c(=O)c2ccc(Cl)c(Cl)c21
MEAS VALUE: 20 to 100 µM
//
COMPOUND: O=C(O)Cn1c2cc(-c3cccnc3)ccc2c(=O)c2ccc(Cl)c(Cl)c21
MEAS VALUE: > 300 µM
//
COMPOUND: COc1c(Cl)ccc2c(=O)c3ccc(C4=CCOCC4)cc3n(CC(=O)O)c12
MEAS VALUE: 20 to 100 µM
//
COMPOUND: COc1c(Cl)ccc2c(=O)c3ccc(Nc4ccc(OC(F)(F)F)cc4)cc3n(CC(=O)O)c12
MEAS VALUE: < 20 µM
//
COMPOUND: Cc1cc2c(cc1F)c(=O)c1ccc(Cl)c(Cl)c1n2CC(=O)O
MEAS VALUE: 100 to 300 µM
//
COMPOUND: CN(Cc1ccccc1)c1c(Cl)ccc2c(=O)c3ccccc3n(CC(=O)O)c12
MEAS VALUE: 100 to 300 µM
//
COMPOUND: CC(C(=O)O)n1c2ccccc2c(=O)c2ccc(Cl)c(Cl)c21 (centres unmarked)
MEAS VALUE: > 300 µM
//
COMPOUND: CCSc1c(Cl)ccc2c(=O)c3ccc(C)cc3n(CC(=O)O)c12
MEAS VALUE: 20 to 100 µM

====

Quick reference: IC50 of the listed items.
Target: hSTING-WT (Homo sapiens (Human), UniProt Q86WV6, H232R)
Assay: Radiometric filtration binding competition assay, hSTING-WT

COMPOUND: COc1c(Cl)ccc2c(=O)c3ccc(Nc4cnccn4)cc3n(CC(=O)O)c12 [Compound 263]
IC50: 20 to 100 µM
//
COMPOUND: CC1(C)CCC(c2ccc3c(=O)c4ccc(Cl)c(Cl)c4n(CC(=O)O)c3c2)CC1 [Compound 160]
IC50: 20 to 100 µM
//
COMPOUND: COCCOc1c(Cl)ccc2c(=O)c3ccccc3n(CC(=O)O)c12 [Compound 330]
IC50: > 300 µM
//
COMPOUND: O=C(O)Cn1c2cc(N3CCCCC3)ccc2c(=O)c2ccc(Cl)c(Br)c21 [Compound 198]
IC50: 100 to 300 µM
//
COMPOUND: CCOc1c(Cl)ccc2c(=O)c3ccccc3n(CC(=O)O)c12 [Compound 244]
IC50: 100 to 300 µM
//
COMPOUND: Cc1cccc(-c2ccc3c(=O)c4ccc(Cl)c(Cl)c4n(CC(=O)O)c3c2)c1 [Compound 151]
IC50: 20 to 100 µM
//
COMPOUND: CC1(C)CCC=C(c2ccc3c(=O)c4ccc(Cl)c(Cl)c4n(CC(=O)O)c3c2)C1 [Compound 157]
IC50: 20 to 100 µM
//
COMPOUND: CSc1c(Cl)ccc2c(=O)c3ccc(Nc4cnccn4)cc3n(CC(=O)O)c12 [Compound 291]
IC50: < 20 µM
//
COMPOUND: CC(C)(O)c1ccc2c(=O)c3ccc(Cl)c(Cl)c3n(CC(=O)O)c2c1 [Compound 168]
IC50: 100 to 300 µM
//
COMPOUND: COc1c(Cl)ccc2c(=O)c3ccc(-c4ccc(N)cc4)cc3n(CC(=O)O)c12 [Compound 274]
IC50: < 20 µM
//
COMPOUND: CC(C)c1ccc2c(=O)c3ccc(Br)c(Cl)c3n(CC(=O)O)c2c1 [Compound 170]
IC50: 20 to 100 µM
//
COMPOUND: CCOc1c(Cl)ccc2c(=O)c3ccc(C)cc3n(CC(=O)O)c12 [Compound 282]
IC50: 20 to 100 µM
//
COMPOUND: CC(C)c1ccc2c(=O)c3ccc(Cl)c(-c4ccccc4)c3n(CC(=O)O)c2c1 [Compound 289]
IC50: < 20 µM
//
COMPOUND: O=C(O)Cn1c2cc(NC3CCOCC3)ccc2c(=O)c2ccc(Cl)c(Cl)c21 [Compound 142]
IC50: 100 to 300 µM
//
COMPOUND: COc1c(Cl)ccc2c(=O)c3ccc(Nc4cccc(O)c4)cc3n(CC(=O)O)c12 [Compound 235]
IC50: < 20 µM
//
COMPOUND: COc1c(Cl)cc(O)c2c(=O)c3ccccc3n(CC(=O)O)c12 [Compound 314]
IC50: > 300 µM
//
COMPOUND: O=C(O)Cn1c2cc(Nc3ccccc3)ccc2c(=O)c2ccc(Cl)c(Br)c21 [Compound 206]
IC50: 20 to 100 µM

====

Molecular target: hSTING-R232 (Homo sapiens (Human), UniProt Q86WV6, H232R)
Sequence (Q86WV6 140-379 H232R): as above
Assay: STING differential scanning fluorimetry (DSF) assay, WT human STING
Details: WT (R232) human STING aa140-379, net shift in melting temperature

CPD SMILES: CSc1c(Cl)ccc2c(=O)c3ccccc3n(CC(=O)O)c12
TEST SYSTEM: hSTING-R232 (Homo sapiens (Human), UniProt Q86WV6, H232R)
WT_DSF_hSWAT Tm Shift (° C.): C (“C” = 2-7° C,)
--
CPD SMILES: O=C(O)Cn1c2cc(-c3ccc(O)cc3)ccc2c(=O)c2ccc(Cl)c(Cl)c21
TEST SYSTEM: hSTING-R232 (Homo sapiens (Human), UniProt Q86WV6, H232R)
WT_DSF_hSWAT Tm Shift (° C.): C (“C” = 2-7° C,)
--
CPD SMILES: O=C(O)Cn1c2cc(NC3CCCCCC3)ccc2c(=O)c2ccc(Cl)c(Cl)c21
TEST SYSTEM: hSTING-R232 (Homo sapiens (Human), UniProt Q86WV6, H232R)
WT_DSF_hSWAT Tm Shift (° C.): C (“C” = 2-7° C,)
--
CPD SMILES: COc1c(Cl)ccc2c(=O)c3ccc(C(C)(C)C)cc3n(CC(=O)NS(C)(=O)=O)c12
TEST SYSTEM: hSTING-R232 (Homo sapiens (Human), UniProt Q86WV6, H232R)
WT_DSF_hSWAT Tm Shift (° C.): D (“D” > 7° C.)
--
CPD SMILES: COc1c(Cl)ccc2c(=O)c3ccc(-c4ccncc4)cc3n(CC(=O)O)c12
TEST SYSTEM: hSTING-R232 (Homo sapiens (Human), UniProt Q86WV6, H232R)
WT_DSF_hSWAT Tm Shift (° C.): D (“D” > 7° C.)
--
CPD SMILES: O=C(O)Cn1c2ccccc2c(=O)c2ccc(Br)c(Br)c21
TEST SYSTEM: hSTING-R232 (Homo sapiens (Human), UniProt Q86WV6, H232R)
WT_DSF_hSWAT Tm Shift (° C.): C (“C” = 2-7° C,)

====

The following molecules are listed with their measured IC50 values.
Biological target: hSTING-WT (Homo sapiens (Human), UniProt Q86WV6, H232R)
Test: Radiometric filtration binding competition assay, hSTING-WT

MOLECULE: COc1c(Cl)ccc2c(=O)c3ccc(C(C)C)cc3n(CC(=O)NS(=O)(=O)C(F)(F)F)c12
IC50: 20 to 100 µM
//
MOLECULE: O=C(O)Cn1c2cc(Nc3ccc(F)cc3F)ccc2c(=O)c2ccc(Cl)c(Cl)c21
IC50: < 20 µM
//
MOLECULE: COc1c(Cl)ccc2c(=O)c3ccc(C4CCCOC4)cc3n(CC(=O)O)c12 (stereo not drawn)
IC50: 20 to 100 µM
//
MOLECULE: O=C(O)Cn1c2cc(-c3ccoc3)ccc2c(=O)c2ccc(Cl)c(Cl)c21
IC50: 20 to 100 µM
//
MOLECULE: CSc1c(Cl)ccc2c(=O)c3ccc(C(C)C)cc3n(CC(=O)O)c12
IC50: < 20 µM
//
MOLECULE: O=C(O)Cn1c2ccccc2c2ccc(Cl)c(Cl)c21
IC50: > 300 µM
//
MOLECULE: CC(C)c1ccc2c(=O)c3ccc(I)c(Cl)c3n(CC(=O)O)c2c1
IC50: > 300 µM
//
MOLECULE: O=C(O)Cn1c2cc(C(F)(F)F)ccc2c(=O)c2ccc(Cl)c(Cl)c21
IC50: > 300 µM
//
MOLECULE: O=C(O)Cn1c2ccccc2c(=O)c2ccc(Cl)c(Cl)c21
IC50: > 300 µM

====

Target: hSTING-R232 (Homo sapiens (Human), UniProt Q86WV6, H232R)
Assay: STING differential scanning fluorimetry (DSF) assay, WT human STING
Details: WT (R232) human STING aa140-379, net shift in melting temperature
READOUT: WT_DSF_hSWAT Tm Shift (° C.)

COMPOUND: O=C(O)Cn1c2ccccc2c(=O)c2ccc(Cl)c(Oc3nccc4ccccc34)c21
MEAS VALUE: A (“A” < 0° C.)
--
COMPOUND: COc1c(Cl)ccc2c(=O)c3ccc(C4CCCOC4)cc3n(CC(=O)O)c12 (centres unmarked)
MEAS VALUE: D (“D” > 7° C.)
--
COMPOUND: COc1c(Cl)ccc2c(=O)c3ccc(C(C)C)cc3n(CC(=O)NS(=O)(=O)C(F)(F)F)c12
MEAS VALUE: C (“C” = 2-7° C,)
--
COMPOUND: CC(C)(C)CNc1ccc2c(=O)c3ccc(Cl)c(Br)c3n(CC(=O)O)c2c1
MEAS VALUE: C (“C” = 2-7° C,)
--
COMPOUND: O=C(O)Cn1c2cc(N3CCCCC3)ccc2c(=O)c2ccc(Cl)c(Br)c21
MEAS VALUE: C (“C” = 2-7° C,)
--
COMPOUND: COc1c(Cl)ccc2c(=O)c3cc(N)c(C(C)C)cc3n(CC(=O)O)c12
MEAS VALUE: A (“A” < 0° C.)
--
COMPOUND: O=C(O)Cn1c2cc(C3=CCC(O)CC3)ccc2c(=O)c2ccc(Cl)c(Cl)c21 (centres unmarked)
MEAS VALUE: C (“C” = 2-7° C,)
--
COMPOUND: CC(C)(O)c1ccc2c(=O)c3ccc(Cl)c(Cl)c3n(CC(=O)O)c2c1
MEAS VALUE: A (“A” < 0° C.)
--
COMPOUND: Cn1ccnc1-c1ccc2c(=O)c3ccc(Cl)c(Cl)c3n(CC(=O)O)c2c1
MEAS VALUE: A (“A” < 0° C.)
--
COMPOUND: Cc1ccc(-c2ccc3c(=O)c4ccc(Cl)c(Cl)c4n(CC(=O)O)c3c2)cc1F
MEAS VALUE: C (“C” = 2-7° C,)
--
COMPOUND: CCOC(=O)Cn1c2cc(C)ccc2c(=O)c2ccc(Cl)c(OCC)c21
MEAS VALUE: B (“B” = 0-2° C.)
--
COMPOUND: O=C(O)Cn1c2ccccc2c(=O)c2ccc(Cl)c(OCCO)c21
MEAS VALUE: B (“B” = 0-2° C.)
--
COMPOUND: CN(C)c1c(Cl)ccc2c(=O)c3ccc(C(C)(C)C)cc3n(CC(=O)O)c12
MEAS VALUE: D (“D” > 7° C.)
--
COMPOUND: CC1(C)CCCC(c2ccc3c(=O)c4ccc(Cl)c(Cl)c4n(CC(=O)O)c3c2)C1 (centres unmarked)
MEAS VALUE: C (“C” = 2-7° C,)
--
COMPOUND: O=C(O)Cn1c2cc(C(F)F)ccc2c(=O)c2ccc(Cl)c(Cl)c21
MEAS VALUE: B (“B” = 0-2° C.)
--
COMPOUND: COc1c(Cl)ccc2c(=O)c3ccc(-c4ccc(O)cc4)cc3n(CC(=O)O)c12
MEAS VALUE: D (“D” > 7° C.)
--
COMPOUND: COc1c(Cl)ccc2c(=O)c3ccc(C4CCOCC4)cc3n(CC(=O)O)c12
MEAS VALUE: C (“C” = 2-7° C,)

Entry source: patent US11414387B2
